Molecular target: furin, P09958;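 further: purified furin at 1:10 enzyme:substrate in 50 mM HEPES pH 7.5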
Sequence (P09958 whole entry): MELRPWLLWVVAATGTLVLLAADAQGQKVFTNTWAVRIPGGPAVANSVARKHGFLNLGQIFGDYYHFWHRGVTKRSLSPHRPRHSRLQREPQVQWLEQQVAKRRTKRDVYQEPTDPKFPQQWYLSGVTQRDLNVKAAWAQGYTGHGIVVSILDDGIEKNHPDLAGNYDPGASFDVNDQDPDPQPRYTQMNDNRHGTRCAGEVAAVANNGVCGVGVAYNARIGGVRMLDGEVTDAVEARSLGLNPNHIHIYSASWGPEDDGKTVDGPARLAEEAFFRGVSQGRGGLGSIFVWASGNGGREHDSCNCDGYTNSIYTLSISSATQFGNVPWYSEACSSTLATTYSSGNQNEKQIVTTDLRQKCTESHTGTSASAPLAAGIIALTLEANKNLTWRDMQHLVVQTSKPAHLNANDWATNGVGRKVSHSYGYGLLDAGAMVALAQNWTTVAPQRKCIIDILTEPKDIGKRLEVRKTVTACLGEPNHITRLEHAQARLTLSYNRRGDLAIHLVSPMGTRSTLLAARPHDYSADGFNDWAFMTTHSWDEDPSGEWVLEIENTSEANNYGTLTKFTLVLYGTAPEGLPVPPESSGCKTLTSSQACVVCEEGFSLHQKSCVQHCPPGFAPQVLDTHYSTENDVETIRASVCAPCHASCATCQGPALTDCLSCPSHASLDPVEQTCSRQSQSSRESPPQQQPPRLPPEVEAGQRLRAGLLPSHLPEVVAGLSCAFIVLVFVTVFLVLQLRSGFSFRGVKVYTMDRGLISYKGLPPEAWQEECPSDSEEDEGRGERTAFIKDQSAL
Assay: furin cleavage Z-score vs untreated control; higher = more cleavage, active = 3.5 or more, inactive = 1 or less, 8 variable residues between constant flanks
Conditions: 7.5 min
Some of the results follow. The true hit rate is not given.
Field 'call' accepts active, inactive

Task item: What outcome does the record of this test show for CARRYRGNDSAGNASASA [FS-3072] ?
Reply: inactive

Task item: Please state the recorded outcome for this sequence: CAFSAREKRDAGNASASA [FS-587]
Reply: active

Task item: Dear colleague, could you share the recorded outcome for CARTWRSVPEAGNASASA [FS-2528] when you have a moment?
Reply: inactive

Task item: What was the test verdict on CARNFRFLSSAGNASASA [FS-3004] ?
Reply: inactive

Task item: Recorded test call requested for CARRRRARSSAGNASASA [FS-3061]
Reply: active

Task item: // param item: CARRWRSLRPAGNASASA [FS-1924] ; yields the recorded call
Reply: inactive

Task item: What call does the record list for CARWNRFAMIAGNASASA [FS-2200] ?
Reply: inactive

Task item: // return assay outcome for CARSARSVARAGNASASA [FS-3075]
Reply: active

Task item: Could you check what this test reported for CAMEECSQSLAGNASASA [HC1757] ?
Reply: inactive

Task item: Look up the recorded call for CARRRRSRSSAGNASASA [FS-3263] in this test.
Reply: active

Task item: What is the recorded call for this sequence in the test? CARSARSAPEAGNASASA [FS-2377]
Reply: active

Task item: Could you check what this test reported for CAIKDRNKRDAGNASASA [FS-251] ?
Reply: active

Task item: Assay outcome for CARSIKSVPEAGNASASA [FS-1927] : what was it?
Reply: inactive

Task item: Fill in: this test's call for CARRERSIKSAGNASASA [FS-863] is ___
Reply: active

Task item: I would be grateful if you could indicate the recorded call for CAIRSALKRPAGNASASA [FS-444] .
Reply: inactive
